target: WT N. gonorrhoeae gyrase (Neisseria gonorrhoeae, UniProt P48371)
Sequence (P48371 whole entry): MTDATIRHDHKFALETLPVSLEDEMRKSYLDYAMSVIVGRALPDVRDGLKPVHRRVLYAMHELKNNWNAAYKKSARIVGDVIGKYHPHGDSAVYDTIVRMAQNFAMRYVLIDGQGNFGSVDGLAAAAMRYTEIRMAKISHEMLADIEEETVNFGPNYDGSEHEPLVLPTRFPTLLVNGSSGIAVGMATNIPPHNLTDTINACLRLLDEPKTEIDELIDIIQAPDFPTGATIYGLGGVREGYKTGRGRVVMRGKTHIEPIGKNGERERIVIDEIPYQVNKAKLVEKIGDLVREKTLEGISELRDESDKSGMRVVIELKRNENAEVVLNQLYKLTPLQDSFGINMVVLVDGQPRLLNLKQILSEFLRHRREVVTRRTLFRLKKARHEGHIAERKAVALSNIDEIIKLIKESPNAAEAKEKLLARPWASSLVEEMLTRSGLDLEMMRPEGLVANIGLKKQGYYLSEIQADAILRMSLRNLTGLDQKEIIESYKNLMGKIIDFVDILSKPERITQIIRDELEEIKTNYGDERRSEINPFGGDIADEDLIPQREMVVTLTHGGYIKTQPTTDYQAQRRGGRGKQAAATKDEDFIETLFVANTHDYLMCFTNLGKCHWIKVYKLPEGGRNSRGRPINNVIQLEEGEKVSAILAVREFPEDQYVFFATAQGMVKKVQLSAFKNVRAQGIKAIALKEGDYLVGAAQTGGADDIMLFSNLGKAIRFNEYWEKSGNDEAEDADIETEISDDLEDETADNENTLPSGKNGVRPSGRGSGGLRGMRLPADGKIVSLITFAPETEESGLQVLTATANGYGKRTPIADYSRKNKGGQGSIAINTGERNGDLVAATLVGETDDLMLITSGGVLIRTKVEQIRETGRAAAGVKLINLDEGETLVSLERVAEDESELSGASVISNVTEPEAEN
Sequence (P22118 whole entry partner): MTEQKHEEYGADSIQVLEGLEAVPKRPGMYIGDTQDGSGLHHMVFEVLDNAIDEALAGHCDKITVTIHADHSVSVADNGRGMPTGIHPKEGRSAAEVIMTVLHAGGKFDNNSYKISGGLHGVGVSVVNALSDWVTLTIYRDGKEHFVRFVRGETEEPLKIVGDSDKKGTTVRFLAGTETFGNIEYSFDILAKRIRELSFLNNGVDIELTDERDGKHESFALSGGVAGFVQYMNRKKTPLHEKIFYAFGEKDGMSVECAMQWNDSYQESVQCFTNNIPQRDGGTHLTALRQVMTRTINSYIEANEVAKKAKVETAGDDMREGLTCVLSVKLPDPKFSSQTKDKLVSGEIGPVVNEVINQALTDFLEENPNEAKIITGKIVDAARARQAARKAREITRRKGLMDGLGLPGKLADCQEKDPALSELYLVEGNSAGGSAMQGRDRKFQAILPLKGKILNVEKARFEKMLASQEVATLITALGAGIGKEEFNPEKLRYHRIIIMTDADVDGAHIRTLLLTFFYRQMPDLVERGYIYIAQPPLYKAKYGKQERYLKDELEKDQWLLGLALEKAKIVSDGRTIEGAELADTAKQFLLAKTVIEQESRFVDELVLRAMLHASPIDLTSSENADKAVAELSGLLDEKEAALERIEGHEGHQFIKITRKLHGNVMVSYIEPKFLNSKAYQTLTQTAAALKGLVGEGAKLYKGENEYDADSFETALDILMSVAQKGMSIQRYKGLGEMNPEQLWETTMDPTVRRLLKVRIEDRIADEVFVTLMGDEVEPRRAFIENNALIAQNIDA
pIC50: −log10 of the molar value.
Experimental Readout: pIC50

                              sample_smiles   val
0  O=c1ccc2ncc(=O)n3c2n1C[C@H]3CN1CCC(NCc2cc3c(cn2)OCCC3)CC1  5.29

* * *

Biological target: N. gonorrhoeae topoisomerase IV ParC^S88P (Neisseria gonorrhoeae, UniProt P48374, S88P)
Sequence (P48374 1-768 S88P): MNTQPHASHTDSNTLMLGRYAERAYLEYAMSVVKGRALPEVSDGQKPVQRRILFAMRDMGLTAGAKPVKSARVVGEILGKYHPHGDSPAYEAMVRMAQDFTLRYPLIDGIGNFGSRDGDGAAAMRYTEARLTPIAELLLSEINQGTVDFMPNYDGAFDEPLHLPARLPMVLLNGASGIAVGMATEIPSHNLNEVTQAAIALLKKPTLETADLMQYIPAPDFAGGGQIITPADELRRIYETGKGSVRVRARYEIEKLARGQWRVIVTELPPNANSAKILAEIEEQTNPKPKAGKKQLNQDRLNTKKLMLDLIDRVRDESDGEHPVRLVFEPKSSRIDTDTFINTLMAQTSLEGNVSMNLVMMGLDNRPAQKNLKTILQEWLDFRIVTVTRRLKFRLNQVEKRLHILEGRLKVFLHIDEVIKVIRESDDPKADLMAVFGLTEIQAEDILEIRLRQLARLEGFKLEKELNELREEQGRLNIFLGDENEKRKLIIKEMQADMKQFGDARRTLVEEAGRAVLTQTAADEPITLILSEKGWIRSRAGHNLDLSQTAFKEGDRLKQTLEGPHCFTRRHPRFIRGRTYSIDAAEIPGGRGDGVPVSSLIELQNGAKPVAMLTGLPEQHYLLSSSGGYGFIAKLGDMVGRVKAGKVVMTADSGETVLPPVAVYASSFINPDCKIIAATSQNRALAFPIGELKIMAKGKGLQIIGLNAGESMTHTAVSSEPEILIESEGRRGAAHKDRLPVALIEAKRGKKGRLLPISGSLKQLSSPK
Assay: Topoisomerase IV-catalyzed DNA decatenation assay, ParC^S88P
pIC50: −log10 of the molar value.
Experimental Readout: pIC50

>>> df
                              sample_smiles   val
0  O=c1ccc2ncc(=O)n3c2n1C[C@H]3CN1CCC(NCc2cc3c(cn2)OCCC3)CC1  5.92
